Cited source: the supplement of paper PMC10567573

B1: RSPH3 (parent)
chain: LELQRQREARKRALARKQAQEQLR

- Variants of: B1
- measurement_protocol: protein stability index of a GFP-peptide fusion (GPS, HEK-293T) (PSI 1-6); higher = more stable;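 further: lentivirally expressed fusions sorted by FACS into six bins by GFP to DsRed ratio, PSI derived from sequencing read proportions per bin multiplied by bin number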
- measurement_setup: c terminus: a fixed tail appended
measurement_name: protein stability index
API doc: respond with a numeric literal and nothing else, no unit.

mut	numeric_readout
R12F	2.82
A9R	4.11
Q18R	3.64

protein stability index reading for `Q22S` : 3.5

protein stability index reading for `Q18I` : 2.33

Reported protein stability index for `Q20D` was 4.74

Documented protein stability index of `Q4C` : 3.52

Quick note, protein stability index for `L14A` landed at 4.46

// protein stability index value for `R16M` : 3.39

Entry `R10G` , protein stability index reported as 4.26

The variant listed as `R16G` has a reported protein stability index of 4.46

Measured protein stability index, `K17T` : 4.43

protein stability index reported for this variant `K17Q` : 4.15

Field protein stability index (entry `Q20C` ) reads 3.35

Sample `R10K` ; protein stability index observed: 3.07

protein stability index in this record for `Q4F` : 3.12

protein stability index measured on `Q20K` = 4.38

// sample `A13T` , its protein stability index was 3.85

Per the record, `A15M` has protein stability index of 2.79

`K11D` has a reported protein stability index of 4.51

# protein stability index (variant: `K17N` ) is 4.45
